Origin of values: patent US9096532B2

Target: ovine COX-1 (Ovis aries)
Construct: purchased Cayman Chemical 700100
Assay: Cyclooxygenase inhibition assay (COX Fluorescent Inhibitor Screening Assay Kit), COX-1
Type: biochemical
Settings: read-out: COX-1 (% inhibition)
Label Satisfied when inhibition at 100 µM >= 10%; otherwise Not satisfied.

See these solved cases before continuing.
Cc1cccc(C)c1NC(=O)NCCCc1cc(-c2ccccc2)n(-c2ccc(S(N)(=O)=O)cc2)n1 [Compound 21d]: Not satisfied
NS(=O)(=O)c1ccc(-n2nc(NC(=O)Nc3cccc(C(F)(F)F)c3)cc2-c2ccccc2)cc1: Satisfied
CS(=O)(=O)c1ccc(-n2nc(CNC(=O)Nc3ccc(C(F)(F)F)cc3)cc2-c2ccccc2)cc1 [Compound 11e]: Satisfied

**Q:** // inclusive: inhibition at 100 µM at least 10%? input: NS(=O)(=O)c1ccc(-n2nc(CNC(=O)Nc3cccc(C(F)(F)F)c3)cc2-c2ccccc2)cc1 [Compound 11g]
**A:** Satisfied

----------
Assay: Pharmacokinetics in mice by oral cassette dosing
Format: in vivo
Conditions: oral cassette dosing at 5 mg/kg, blood
observable: log10 of Cmax (log10 of the value in nM)
// do not treat as linear: log10 of Cmax, unit nM

NS(=O)(=O)c1ccc(-n2nc(CCCNC(=O)Nc3ccc(OC(F)(F)F)cc3)cc2-c2ccccc2)cc1 [Compound 21j]: 2.46

**Q:** So what does the record say about log10 of Cmax for NS(=O)(=O)c1ccc(-n2nc(CCCNC(=O)NC3CCCCCC3)cc2-c2ccccc2)cc1 [Compound 21g] ?
**A:** 1.62

**Q:** So what does the record say about log10 of Cmax for NS(=O)(=O)c1ccc(-n2nc(CCCNC(=O)Nc3ccc(Cl)cc3)cc2-c2ccccc2)cc1 [Compound 21h] ?
**A:** 2.28

----------
Assay: Pharmacokinetics in rats by oral administration
Conditions: male, Sprague-Dawley, rat, whole blood, po, 1 mg/kg
observable: half-life (h)
All answers are understood in h, so give the number only.

**Q:** So what does the record say about half-life for NS(=O)(=O)c1ccc(-n2nc(CCCNC(=O)Nc3ccc(OC(F)(F)F)cc3)cc2-c2ccccc2)cc1 [Compound 21j] ?
**A:** 11.6

----------
Assay: Pharmacokinetics in mice by oral cassette dosing
Type: in vivo
Settings: oral cassette dosing at 5 mg/kg, blood
observable: t1/2 (h)
All answers are understood in h, so give the number only.

Reference set, count: 6
NS(=O)(=O)c1ccc(-n2nc(CCCNC(=O)NC34CC5CC(CC(C5)C3)C4)cc2-c2ccccc2)cc1 [Compound 21f]: 1.7
NS(=O)(=O)c1ccc(-n2nc(CCCNC(=O)Nc3ccc(Cl)cc3)cc2-c2ccccc2)cc1 [Compound 21h]: 2.4
NS(=O)(=O)c1ccc(-n2nc(CCCNC(=O)Nc3ccc(OC(F)(F)F)cc3)cc2-c2ccccc2)cc1 [Compound 21j]: 2.4
NS(=O)(=O)c1ccc(-n2nc(CCCNC(=O)Nc3ccccc3)cc2-c2ccccc2)cc1 [Compound 21e]: 3.1
NS(=O)(=O)c1ccc(-n2nc(CCCNC(=O)Nc3cccc(C(F)(F)F)c3)cc2-c2ccccc2)cc1 [Compound 21b]: 1.0
NS(=O)(=O)c1ccc(-n2nc(CCCNC(=O)NC3CCCCCC3)cc2-c2ccccc2)cc1 [Compound 21g]: 3.5

Please turn your attention to the following entry.
**Q:** So what does the record say about t1/2 for NS(=O)(=O)c1ccc(-n2nc(CCCNC(=O)Nc3ccc(C(F)(F)F)cc3)cc2-c2ccccc2)cc1 [Compound 21i] ?
**A:** 2.6

----------
Tested on: HepG2 cells
Assay: HepG2 cell viability analysis (MTT)
Format: cell-based
Conditions: Homo sapiens, HepG2; MTT after 24 hours of incubation
Documented EC50 across a set of molecules

NS(=O)(=O)c1ccc(-n2nc(CCCNC(=O)Nc3ccc(C(F)(F)F)cc3)cc2-c2ccccc2)cc1 [Compound 21i]: 4.5 µM

**Q:** Give HepG2 cells EC50 for Cc1ccc(-c2cc(C(F)(F)F)nn2-c2ccc(S(N)(=O)=O)cc2)cc1 [Celecoxib, celecoxib, reference compound]
**A:** 20 µM

**Q:** Give HepG2 cells EC50 for NS(=O)(=O)c1ccc(-n2nc(CCCNC(=O)Nc3ccc(OC(F)(F)F)cc3)cc2-c2ccccc2)cc1 [Compound 21j]
**A:** 10 µM

----------
Biological target: human recombinant COX-2 (Homo sapiens, UniProt P35354)
Construct: purchased Cayman Chemical 700100
Sequence (P35354 18-604): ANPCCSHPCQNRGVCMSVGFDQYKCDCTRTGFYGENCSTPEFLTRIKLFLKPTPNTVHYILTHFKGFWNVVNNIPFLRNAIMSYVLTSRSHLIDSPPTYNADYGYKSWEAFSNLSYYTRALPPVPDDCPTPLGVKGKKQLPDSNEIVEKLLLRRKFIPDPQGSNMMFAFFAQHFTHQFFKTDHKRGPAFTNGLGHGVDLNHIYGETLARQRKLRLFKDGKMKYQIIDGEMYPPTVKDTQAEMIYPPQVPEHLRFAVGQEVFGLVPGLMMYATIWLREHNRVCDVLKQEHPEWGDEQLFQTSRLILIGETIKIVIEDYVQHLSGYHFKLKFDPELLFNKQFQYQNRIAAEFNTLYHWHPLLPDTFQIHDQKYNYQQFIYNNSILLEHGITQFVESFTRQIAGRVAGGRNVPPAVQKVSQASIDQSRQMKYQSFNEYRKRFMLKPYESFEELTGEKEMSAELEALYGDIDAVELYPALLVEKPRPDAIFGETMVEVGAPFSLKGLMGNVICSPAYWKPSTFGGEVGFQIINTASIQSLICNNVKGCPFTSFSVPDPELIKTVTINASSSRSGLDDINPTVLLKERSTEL
Experiment: Cyclooxygenase inhibition assay (COX Fluorescent Inhibitor Screening Assay Kit), COX-2
Assay type: biochemical
Details: text of b131, unit inferred
observable: IC50 (nM)
All answers are understood in nM, so give the number only.

**Q:** So what does the record say about IC50 for NS(=O)(=O)c1ccc(-n2nc(CCCNC(=O)Nc3cccc(C(F)(F)F)c3)cc2-c2ccccc2)cc1 [Compound 21b] ?
**A:** 710

----------
Documented inhibition at 100 µM across a set of molecules
Biological target: ovine COX-1 (Ovis aries, UniProt P05979)
Construct: purchased Cayman Chemical 700100
Sequence (P05979 25-600): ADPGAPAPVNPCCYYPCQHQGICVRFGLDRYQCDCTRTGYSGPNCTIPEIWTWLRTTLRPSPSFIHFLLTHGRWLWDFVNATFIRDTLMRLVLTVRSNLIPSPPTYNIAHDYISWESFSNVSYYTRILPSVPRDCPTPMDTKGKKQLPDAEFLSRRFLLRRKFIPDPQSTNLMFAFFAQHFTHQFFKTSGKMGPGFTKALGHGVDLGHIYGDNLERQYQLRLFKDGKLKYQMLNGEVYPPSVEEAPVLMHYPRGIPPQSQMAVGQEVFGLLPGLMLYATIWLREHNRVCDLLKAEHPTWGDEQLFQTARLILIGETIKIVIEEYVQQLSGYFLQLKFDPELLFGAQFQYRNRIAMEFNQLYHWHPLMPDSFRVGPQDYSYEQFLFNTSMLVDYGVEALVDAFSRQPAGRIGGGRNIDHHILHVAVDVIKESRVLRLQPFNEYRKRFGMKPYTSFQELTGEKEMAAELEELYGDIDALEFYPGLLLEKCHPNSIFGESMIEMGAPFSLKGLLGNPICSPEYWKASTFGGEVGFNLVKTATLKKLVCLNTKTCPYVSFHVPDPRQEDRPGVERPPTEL
Assay: Cyclooxygenase inhibition assay (COX Fluorescent Inhibitor Screening Assay Kit), COX-1
Type: biochemical
Settings: read-out: COX-1 (% inhibition)
All answers are understood in %, so give the number only.

Reference set, count: 3
NS(=O)(=O)c1ccc(-n2nc(CCCNC(=O)Nc3cccc(C(F)(F)F)c3)cc2-c2ccccc2)cc1 [Compound 21b]: 27.2
CS(=O)(=O)c1ccc(-n2nc(CNC(=O)NC34CC5CC(CC(C5)C3)C4)cc2-c2ccccc2)cc1 [Compound 11a]: 12.7
NS(=O)(=O)c1ccc(-n2nc(CCCNC(=O)Nc3ccc(C(F)(F)F)cc3)cc2-c2ccccc2)cc1 [Compound 21i]: 22.7

**Q:** So what does the record say about inhibition at 100 µM for NS(=O)(=O)c1ccc(-n2nc(CCCNC(=O)Nc3ccccc3)cc2-c2ccccc2)cc1 [Compound 21e] ?
**A:** 15.8

**Q:** So what does the record say about inhibition at 100 µM for CC(C)(C)c1cc(CNC(=O)Nc2cccc(C(F)(F)F)c2)nn1-c1ccc(S(C)(=O)=O)cc1 [Compound 11h] ?
**A:** 2.4

**Q:** So what does the record say about inhibition at 100 µM for CS(=O)(=O)c1ccc(-n2nc(CNC(=O)Nc3ccc(OC(F)(F)F)cc3)cc2-c2ccccc2)cc1 [Compound 11d] ?
**A:** 10.4

**Q:** So what does the record say about inhibition at 100 µM for Cc1ccc(-c2cc(CCCNC(=O)Nc3cccc(C(F)(F)F)c3)nn2-c2ccc(S(N)(=O)=O)cc2)cc1 [Compound 21c] ?
**A:** 12.1

**Q:** So what does the record say about inhibition at 100 µM for NS(=O)(=O)c1ccc(-n2nc(CCCNC(=O)NC3CCCCCC3)cc2-c2ccccc2)cc1 [Compound 21g] ?
**A:** 10.2

**Q:** So what does the record say about inhibition at 100 µM for NS(=O)(=O)c1ccc(-n2nc(CCNC(=O)Nc3cccc(C(F)(F)F)c3)cc2-c2ccccc2)cc1 [Compound 15] ?
**A:** 22

----------
Assay: Pharmacokinetics in mice by oral cassette dosing
Format: in vivo
Details: oral cassette dosing at 5 mg/kg, blood
Documented AUC across a set of molecules
All answers are understood in µM·h, so give the number only.

Reference set, count: 6
NS(=O)(=O)c1ccc(-n2nc(CCCNC(=O)Nc3cccc(C(F)(F)F)c3)cc2-c2ccccc2)cc1 [Compound 21b]: 0.035
NS(=O)(=O)c1ccc(-n2nc(CCCNC(=O)Nc3ccc(C(F)(F)F)cc3)cc2-c2ccccc2)cc1 [Compound 21i]: 0.98
NS(=O)(=O)c1ccc(-n2nc(CCCNC(=O)NC3CCCCCC3)cc2-c2ccccc2)cc1 [Compound 21g]: 0.1
NS(=O)(=O)c1ccc(-n2nc(CCCNC(=O)Nc3ccc(OC(F)(F)F)cc3)cc2-c2ccccc2)cc1 [Compound 21j]: 1.335
NS(=O)(=O)c1ccc(-n2nc(CCCNC(=O)Nc3ccccc3)cc2-c2ccccc2)cc1 [Compound 21e]: 0.125
NS(=O)(=O)c1ccc(-n2nc(CCCNC(=O)Nc3ccc(Cl)cc3)cc2-c2ccccc2)cc1 [Compound 21h]: 0.375

Please turn your attention to the following entry.
**Q:** So what does the record say about AUC for NS(=O)(=O)c1ccc(-n2nc(CCCNC(=O)NC34CC5CC(CC(C5)C3)C4)cc2-c2ccccc2)cc1 [Compound 21f] ?
**A:** 0.022
